test name: Colon pharmacokinetics in mice
Assay type: in vivo
test context: 30 mg/kg oral gavage in 0.5% methyl-cellulose in water, male C57BL/6 mouse, colon conc. to plasma conc. ratio at 8 h; read-out: Mouse TD Colon/Plasma @ 8 h
recorded metric: Kp at 8 h

>>> print(df.to_string())
                                   molecule  measured_number
0  CNS(=O)(=O)c1ccc(S(=O)(=O)NC(=O)Cc2c(C(C)C)cc(COC3CCCC3)cc2C(C)C)c(CO)c1 [Compound 140]              558
1  CNS(=O)(=O)c1ccc(S(=O)(=O)NC(=O)Cc2c(C(C)C)cc(C#N)c(F)c2C(C)C)cc1CO [Compound 128]             1180
2  CNS(=O)(=O)c1ccc(S(=O)(=O)NC(=O)Cc2c(C(C)C)cc(C#N)c(F)c2C(C)C)c(CO)c1 [Compound 127]              197
3  CNS(=O)(=O)c1ccc(S(=O)(=O)NC(=O)Cc2c(C(C)C)cc(C#N)c(F)c2C(C)C)c(OC)c1 [Compound 117]             3380
4  CC(C)Cc1cc(C#N)cc(C(C)C)c1CC(=O)NS(=O)(=O)c1sc(C(C)(C)O)nc1CO [Compound 122]             1480
5  CCC(C)c1cc(C#N)cc(C(C)C)c1CC(=O)NS(=O)(=O)c1sc(C(C)(C)O)nc1CO (stereo not drawn) [Compound 119]             6720
